Ref: patent US9884842B2

test system: SF-539; assay: NCI growth inhibition and cytotoxicity screen, CNS Cancer panel; conditions: Homo sapiens, SF-539, read-out: LC50
recorded-endpoint: CC50

>  <molecule>
COc1cc(/C(C#N)=C\c2cc3ccccc3s2)cc(OC)c1OC

>  <target-entity>
SF-539

>  <CC50>
> 100 µM

$$$$
>  <molecule>
COc1cc(/C(C#N)=C/c2ccc3ccccc3n2)cc(OC)c1OC

>  <target-entity>
SF-539

>  <CC50>
14.9 µM

$$$$

Now for another entry.
Data point: COc1cc(OC)cc(/C(C#N)=C/c2cnc3ccccc3c2)c1 ; CC50 = > 100 µM

----------
tested on: MDA-MB-231/ATCC; assay: NCI growth inhibition and cytotoxicity screen, Breast Cancer panel; conditions: Homo sapiens, MDA-MB-231
Item-by-item account of GI50
Include the unit right after the number.

Worked examples follow.
>  <molecule>
COc1cc(/C(C#N)=C/c2ccc3ccccc3n2)cc(OC)c1OC [PNR-4-90]

>  <result>
943 nM

$$$$
>  <molecule>
COc1cc(OC)cc(/C(C#N)=C/c2ccc3ccccc3n2)c1 [PNR-4-84]

>  <result>
1020 nM

$$$$

Now for another entry.
Data point: COc1cc(/C=C/c2cc3ccccc3o2)cc(OC)c1OC [Formula (I)(c)] ; GI50 = 1.17 nM

----------
system: full panel of 60 different cancer cell lines; assay: NCI five dose screen, full panel summary; type: cell-based, human; conditions: Homo sapiens; range over the potently inhibited cell lines; read-out: GI50 ranging (potently inhibited cancer cell lines)
Item-by-item account of GI50

Worked examples follow.
>  <molecule>
COc1cc(OC)cc(/C(C#N)=C/c2cnc3ccccc3c2)c1 [PNR-4-85]

>  <recorded-endpoint>
GI50

>  <result>
53 to 903 nM

$$$$
>  <molecule>
COc1cc(OC)cc(/C(C#N)=C/c2ccc3ccccc3n2)c1 [PNR-4-84]

>  <recorded-endpoint>
GI50

>  <result>
94 to 983 nM

$$$$
>  <molecule>
COc1cc(/C(C#N)=C/c2ccc3ccccc3n2)cc(OC)c1OC [PNR-4-90]

>  <recorded-endpoint>
GI50

>  <result>
33 to 943 nM

$$$$

Now for another entry.
Data point: COc1cc(/C(C#N)=C/c2cnc3ccccc3c2)cc(OC)c1OC [PNR-5-10] ; GI50 = 227 to 911 nM

----------
Item-by-item account of CC50
tested on: LOX-IMVI; assay: NCI growth inhibition and cytotoxicity screen, Melanoma panel; settings: Homo sapiens, read-out: LC50

Worked examples follow.
>  <molecule>
COc1cc(/C(C#N)=C/c2ccc3ccccc3n2)cc(OC)c1OC

>  <result>
> 100 µM

$$$$
>  <molecule>
COc1cc(/C=C/c2nc3ccccc3s2)cc(OC)c1OC

>  <result>
67.9 µM

$$$$

Data point: COc1cc(/C(C#N)=C\c2cc3ccccc3s2)cc(OC)c1OC ; CC50 = > 100 µM

Data point: COc1cc(/C=C/c2cc3ccccc3o2)cc(OC)c1OC ; CC50 = 60.4 µM

Data point: COc1cc(OC)cc(/C(C#N)=C/c2cnc3ccccc3c2)c1 ; CC50 = > 100 µM

----------
tested on: A498; experiment: NCI growth inhibition and cytotoxicity screen, Renal Cancer panel; settings: Homo sapiens, A498, read-out: LC50
Item-by-item account of CC50

Data point: COc1cc(OC)cc(/C(C#N)=C/c2c[nH]c3ccccc23)c1 [Formula (I)(b)] ; CC50 = > 100 µM

Data point: COc1cc(/C(C#N)=C/c2ccc3ccccc3n2)cc(OC)c1OC [PNR-4-90] ; CC50 = > 100 µM

Data point: COc1cc(/C=C/c2cc3ccccc3o2)cc(OC)c1OC [Formula (I)(c)] ; CC50 = 48.4 µM
